# System: U251 CNS
# assayNotes: NCI tumour cell line growth inhibition, 48 h
TGI listing for selected compounds.

Qu. Quick check: TGI of CC#CC#C/C=C1\C=CC2(OC=CC2O)O1 (stereo unspecified) ?
Ans. > 23.3 µM

Qu. Now try CC[C@@H](C)/C=C(C)/C=C/C(=O)c1c(O)c(-c2ccc(O)cc2)cn(OC2CC(=O)CCC(C)OC(=O)CC2O)c1=O (stereo partly specified) .
Ans. 12.5 µM

Qu. Follow-up item: `O=C(CCCn1ccnc1[N+](=O)[O-])NCCn1cnc([N+](=O)[O-])n1`
Ans. > 100 µM

Next:
Qu. Entry `Cn1c(=O)cc(Nc2ccc(N)cc2)[nH]c1=O` has what TGI?
Ans. > 100 µM
